biological target: T1, human vascular endothelial growth factor receptor-2 Fc chimera (KDR-Fc) (human, UniProt P35968 20-764); test: radioactive equilibrium binding assay, 1 nM KDR-Fc, % of input bound
T1 construct: range 1-764; also called human VEGFR-2; not shown: human IgG1 Fc
T1 sequence (P35968 20-764 limits assumed, change not shown, form in doubt): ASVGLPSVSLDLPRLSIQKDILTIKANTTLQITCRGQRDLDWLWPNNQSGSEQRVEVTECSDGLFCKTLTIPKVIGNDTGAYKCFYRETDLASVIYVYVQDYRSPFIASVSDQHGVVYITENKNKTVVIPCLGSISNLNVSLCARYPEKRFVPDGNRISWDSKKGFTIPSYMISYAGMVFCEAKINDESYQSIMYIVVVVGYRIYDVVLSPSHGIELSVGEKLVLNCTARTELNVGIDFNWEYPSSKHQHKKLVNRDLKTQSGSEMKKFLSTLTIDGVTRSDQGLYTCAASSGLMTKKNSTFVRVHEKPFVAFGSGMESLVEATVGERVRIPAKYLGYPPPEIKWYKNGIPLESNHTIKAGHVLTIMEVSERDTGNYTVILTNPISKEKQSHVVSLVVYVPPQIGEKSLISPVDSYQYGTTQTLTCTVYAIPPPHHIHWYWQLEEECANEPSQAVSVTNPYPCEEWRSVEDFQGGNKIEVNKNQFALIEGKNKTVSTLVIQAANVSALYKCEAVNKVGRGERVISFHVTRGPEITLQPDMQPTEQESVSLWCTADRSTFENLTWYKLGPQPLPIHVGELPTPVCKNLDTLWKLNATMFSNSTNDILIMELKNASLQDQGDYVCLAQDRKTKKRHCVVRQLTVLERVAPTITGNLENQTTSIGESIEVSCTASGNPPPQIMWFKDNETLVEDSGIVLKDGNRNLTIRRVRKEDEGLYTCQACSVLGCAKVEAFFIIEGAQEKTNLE
Readout label: Binding to 1 nM KDR, % (%)

INSERT INTO assay_data (binder, observed_result) VALUES
  ('E26 (designed binder, 10Fn3 clone, Del 1-8) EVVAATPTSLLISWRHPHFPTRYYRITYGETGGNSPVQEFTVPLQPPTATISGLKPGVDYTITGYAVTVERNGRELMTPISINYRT', 27),
  ('F1 (designed binder, 10Fn3 clone, Del 1-8) EVVAATPTSLLISWRHPHFPTRYYRITYGETGGNSPVQEFTVPLQPPTATISGLKPGVDYTITGYAVTSGRNDRELLVPISINYRT', 18),
  ('F6 (designed binder, 10Fn3 clone, Del 1-8) EVVAATPTSLLISWRHPHFPTRYYRITYGETGGNSPVQEFTVPLQPPTATISGLKPGVDYTITGYAVTVEQNGRVLMTPISINYRT', 37),
  ('A9 (designed binder, 10Fn3 clone, Del 1-8) EVVAATPTSLLISWRHPHFPTRYYRITYGETGGNSPVQEFTVPLQPPTATISGLKPGVDYTITGYAVTEGWNDRELFVPISINYRT', 31),
  ('F9 (designed binder, 10Fn3 clone, Del 1-8) EVVAATPTSLLISWRHPHFPTRYYRITYGETGGNSPVQEFTVPLQPPTATISGLKPGVDYTITGYAVTVEPNGRVLNTPISINYRT', 32);
